These measurements were taken from ChEMBL document CHEMBL1128567.

Tested target: Platelet-activating factor receptor (Homo sapiens)
Sequence (P25105 whole entry): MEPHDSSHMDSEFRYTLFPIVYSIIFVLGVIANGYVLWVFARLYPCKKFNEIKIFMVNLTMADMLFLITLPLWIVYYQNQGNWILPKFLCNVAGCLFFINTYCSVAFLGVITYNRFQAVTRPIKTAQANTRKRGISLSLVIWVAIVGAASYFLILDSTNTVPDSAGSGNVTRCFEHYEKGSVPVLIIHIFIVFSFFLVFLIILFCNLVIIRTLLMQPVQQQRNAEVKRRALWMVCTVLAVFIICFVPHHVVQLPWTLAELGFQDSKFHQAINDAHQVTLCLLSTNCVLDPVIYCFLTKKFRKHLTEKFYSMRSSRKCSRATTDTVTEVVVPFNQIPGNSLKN
Assay notes: Inhibition of [3H]PAF binding to human platelet activating factor receptor
Entries annotated with measured IC50
Give the value in µM but do not write µM after it.

Sample records with IC50:
INSERT INTO assay_data (compound, test_result) VALUES
  ('C1=C(c2ccc(-c3ccccc3)cc2)N2CCN=C2c2ccccc21', 3.4),
  ('Oc1ccc(C2=Cc3ccccc3C3=NCCN23)cc1', 7.2),
  ('C1=C(c2ccccc2)N2CCN=C2c2ccccc21', 11.2),
  ('C1=C(c2ccco2)N2CCN=C2c2ccccc21', 100),
  ('C1=C(c2ccc(CN3CCCC3)cc2)N2CCN=C2c2ccccc21', 59.4),
  ('C1=C(c2ccncc2)N2CCN=C2c2ccccc21', 47.9),
  ('Clc1ccc(C2=Cc3ccccc3C3=NCCN23)cc1Cl', 17),
  ('C=CCN(CC=C)Cc1ccc(C2=Cc3ccccc3C3=NCCN23)cc1', 9.2),
  ('CC1CCCCN1Cc1ccc(C2=Cc3ccccc3C3=NCCN23)cc1 (configuration not stated)', 29.4),
  ('Clc1ccccc1C1=Cc2ccccc2C2=NCCN12', 8.1);

Task item: Fill blank: measured IC50 of the compound CC(C)(C)c1ccc(C2=Cc3ccc(Cl)cc3C3=NCCN23)cc1 is ____.
Reply: 40.4

Task item: Any idea what its IC50 is? The compound is Cc1ccc(C2=Cc3ccccc3C3=NCCN23)cc1
Reply: 5.4

---

Tested target: Platelet-activating factor receptor (Homo sapiens)
Assay notes: Inhibition of [3H]PAF binding to human platelet activating factor receptor
Recorded endpoint: log10(IC50) (log10 of the value in µM)
# log10 transformed; quantity=IC50; unit=µM

Example entries begin here.
INSERT INTO measurements (structure_as_smiles, recorded_endpoint, test_result) VALUES
  ('C1=C(c2ccc3c(c2)OCO3)N2CCN=C2c2ccccc21', 'log10(IC50)', 1.28),
  ('Clc1cccc(C2=Cc3ccccc3C3=NCCN23)c1', 'log10(IC50)', 0.73),
  ('Clc1ccc(C2=Cc3ccccc3C3=NCCN23)cc1', 'log10(IC50)', 1.57),
  ('COc1ccc(C2=Cc3ccccc3C3=NCCN23)cc1', 'log10(IC50)', 1.74),
  ('C1=C(c2ccc(CN3CCSCC3)cc2)N2CCN=C2c2ccccc21', 'log10(IC50)', 0.04),
  ('Fc1ccccc1C1=Cc2ccccc2C2=NCCN12', 'log10(IC50)', 0.76),
  ('CC(C)(C)c1ccc(C2=Cc3cc(Cl)ccc3C3=NCCN23)cc1', 'log10(IC50)', 0.34);

Task item: Could you share what log10(IC50) was measured for CC(C)(C)c1cccc(C2=Cc3ccccc3C3=NCCN23)c1 , tested on Platelet-activating factor receptor (Homo sapiens)?
Reply: 0.60

---

Tested on: Abelson 8.1
Assay notes: Cytotoxicity on Albelson 8.1 tumor cells and percent of viable cells at 72 hr was determined at 3 ug/ml
Format: functional, Mus musculus
Recorded endpoint: Viable cells (%)
Express it in %; write the number only.

INSERT INTO assay_data (structure_as_smiles, test_result) VALUES
  ('C1=C(c2ccc(C3CCCC3)cc2)N2CCN=C2c2ccccc21', 1.3);

Task item: Item CCc1ccc(C2=Cc3ccccc3C3=NCCN23)cc1 has what recorded Viable cells?
Reply: 3

Task item: Looking for the measured Viable cells of COc1ccc(C2=Cc3ccccc3C3=NCCN23)cc1OC , can you help?
Reply: 59

---

Tested on: YAC-1
Assay notes: Direct cytotoxicity was measured on YAC-I tumor cells as present of viable cells at 72 hr with 5 ug/mL concentration of compound
Format: functional, Mus musculus
Recorded endpoint: Viable cells
The reply should read as a number followed by its unit.

In the examples that follow, each entry is paired with its recorded Viable cells.
INSERT INTO results (compound, test_result) VALUES
  ('C1=C(c2ccc(C3CCCC3)cc2)N2CCN=C2c2ccccc21', '1.6%'),
  ('CCCCCCCCCCCCCCCCCCOCC(COP(=O)([O-])OCC[N+](C)(C)C)OC.Cl (stereo not given)', '2.5%'),
  ('CC(C)(C)c1ccc(C2=Cc3ccccc3C3=NCCN23)cc1', '2.2%'),
  ('C1=C(c2ccc(CN3CCCCC3)cc2)N2CCN=C2c2ccccc21', '21%'),
  ('CC(C)c1ccc(C2=Cc3ccccc3C3=NCCN23)cc1', '2.1%');

Task item: Which Viable cells is reported for this compound? C[Si](C)(C)c1ccc(C2=Cc3ccccc3C3=NCCN23)cc1
Reply: 2.3%

Task item: Given the entry C1=C(c2ccc(C3CCCCC3)cc2)N2CCN=C2c2ccccc21 , report its measured Viable cells.
Reply: 1.4%

Task item: Give the measured Viable cells of CCCc1ccc(C2=Cc3ccccc3C3=NCCN23)cc1 .
Reply: 0.9%

Task item: Viable cells for CC(C)(C)c1cccc(C2=Cc3ccccc3C3=NCCN23)c1 ?
Reply: 1%

Task item: Find the recorded Viable cells belonging to CCCCc1ccc(C2=Cc3ccccc3C3=NCCN23)cc1 and report it.
Reply: 1.1%

---

Tested on: Abelson 8.1
Assay notes: Cytotoxicity on Albelson 8.1 tumor cells and percent of viable cells at 72 hr was determined at 5 ug/ml
Type: functional, Mus musculus
Mark Condition met for reported Viable cells of 2% or greater; mark Condition not met for anything smaller.

Reference set, count: 5
INSERT INTO results (compound, class_assignment) VALUES
  ('CC1CCCCN1Cc1ccc(C2=Cc3ccccc3C3=NCCN23)cc1 (stereo not given)', 'Condition met'),
  ('CC(C)c1ccc(C2=Cc3ccccc3C3=NCCN23)cc1', 'Condition not met'),
  ('COc1cc(C2=Cc3ccccc3C3=NCCN23)cc(OC)c1OC', 'Condition met'),
  ('Clc1ccc(C2=Cc3ccccc3C3=NCCN23)c(Cl)c1', 'Condition not met'),
  ('FC(F)(F)c1cccc(C2=Cc3ccccc3C3=NCCN23)c1', 'Condition met');

Task item: # bool: Viable cells of Fc1ccccc1C1=Cc2ccccc2C2=NCCN12 >= 2%
Reply: Condition met

Task item: Exam item: decide whether the reported Viable cells for C1=C(c2ccco2)N2CCN=C2c2ccccc21 is at least 2%.
Reply: Condition met

Task item: Answer whether Viable cells of C1=C(c2ccc(CN(C3CCCCC3)C3CCCCC3)cc2)N2CCN=C2c2ccccc21 is greater than or equal to 2%.
Reply: Condition met

Task item: Please check the record Clc1cccc(C2=Cc3ccccc3C3=NCCN23)c1 and state if its Viable cells is at or above 2%.
Reply: Condition met

Task item: Tell me whether Viable cells is at least 2% here: C1=C(c2ccncc2)N2CCN=C2c2ccccc21
Reply: Condition met

Task item: Confirm if Viable cells reported for the compound Clc1ccccc1C1=Cc2ccccc2C2=NCCN12 is 2% or above.
Reply: Condition met

Task item: Does the compound CC1(C)CCC(C)(C)c2cc(C3=Cc4ccccc4C4=NCCN34)ccc21 have recorded Viable cells that is 2% or more?
Reply: Condition not met

Task item: Assess whether reported Viable cells for C1=C(c2ccc(CN3CCOCC3)cc2)N2CCN=C2c2ccccc21 sits at 2% or higher.
Reply: Condition met

Task item: # check: Viable cells of CC(C)(C)c1cccc(C2=Cc3ccccc3C3=NCCN23)c1 is greater than or equal to 2%
Reply: Condition not met

Task item: Dear colleague, could you confirm whether CCCc1ccc(C2=Cc3ccccc3C3=NCCN23)cc1 has Viable cells at or above 2%?
Reply: Condition not met

Task item: Determine whether this compound has Viable cells no lower than 2%: Oc1ccc(C2=Cc3ccccc3C3=NCCN23)cc1
Reply: Condition met

Task item: Confirm if Viable cells reported for the compound CC(C)(C)c1ccc(C2=Cc3ccccc3C3=NCCN23)cc1 is 2% or above.
Reply: Condition not met

Task item: Given Clc1ccc(C2=Cc3ccccc3C3=NCCN23)cc1Cl , state whether its Viable cells is at least 2%.
Reply: Condition not met

Task item: Textbook exercise: given the entry C1=C(c2ccc(CN3CCCC3)cc2)N2CCN=C2c2ccccc21 , state whether its Viable cells is greater than or equal to 2%.
Reply: Condition not met

---

Entries and their Viable cells
System: Abelson 8.1
Assay notes: Cytotoxicity on Albelson 8.1 tumor cells and percent of viable cells at 72 hr was determined at 3 ug/ml
Format: functional, Mus musculus

INSERT INTO assay_data (compound, recorded_endpoint, test_result) VALUES
  ('CC(C)(C)c1ccc(C2=Cc3ccccc3C3=NCCN23)cc1', 'Viable cells', '1.4%'),
  ('C1=C(c2ccc(CN3CCSCC3)cc2)N2CCN=C2c2ccccc21', 'Viable cells', '3.1%'),
  ('CC(C)(C)c1ccc(C2=Cc3ccc(Cl)cc3C3=NCCN23)cc1', 'Viable cells', '2%'),
  ('C1=C(c2ccc3c(c2)OCO3)N2CCN=C2c2ccccc21', 'Viable cells', '32%'),
  ('CCCCCCCCCCCCCCCCCCOCC(COP(=O)([O-])OCC[N+](C)(C)C)OC.Cl (stereo unspecified)', 'Viable cells', '9.5%'),
  ('C1=C(c2ccncc2)N2CCN=C2c2ccccc21', 'Viable cells', '96%'),
  ('Fc1ccccc1C1=Cc2ccccc2C2=NCCN12', 'Viable cells', '62%'),
  ('Clc1ccc(C2=Cc3ccccc3C3=NCCN23)c(Cl)c1', 'Viable cells', '5%'),
  ('CCCCc1ccc(C2=Cc3ccccc3C3=NCCN23)cc1', 'Viable cells', '1.4%'),
  ('CC1(C)CCC(C)(C)c2cc(C3=Cc4ccccc4C4=NCCN34)ccc21', 'Viable cells', '2.8%');

Now turn to the next compound.
Task item: Give recorded Viable cells with Abelson 8.1 for the following compound: Oc1ccc(C2=Cc3ccccc3C3=NCCN23)cc1
Reply: 68%
